Molecular target: Apelin receptor (Homo sapiens)
Test: APJ receptor antagonists, beta-arrestin recruitment, SAR follow-up, cell-based, CHO-K1 AGTRL-1, PathHunter luminescence, set 6 (AID 504455)
Conditions: apelin-13 antagonism
The source made the active and inactive calls.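 Rule for the calls: active = compounds whose mean IC50 is below 20 µM; inactive = the rest.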
API: response.call in active, inactive

Observe how each entry below is paired with its result.
chem-smiles: Cc1ccc(C(=O)Oc2coc(CSc3ncccn3)cc2=O)cc1[N+](=O)[O-]
assigned-category: active
--
chem-smiles: Cc1ccnc(SCc2cc(=O)c(OC(=O)c3ccccc3)co2)n1
assigned-category: inactive
--
chem-smiles: N#Cc1ccc(C(=O)Oc2coc(CSc3ncccn3)cc2=O)cc1
assigned-category: active

Data request: // outcome(item) with item = Cc1ccnc(SCc2cc(=O)c(OC(=O)c3ccc([N+](=O)[O-])cc3)co2)n1
Data returned: active

Data request: Answer briefly: the call reported for Cc1ccnc(SCc2cc(=O)c(OC(=O)c3ccc(C#N)cc3)co2)n1 in this assay.
Data returned: active
